Parameter MIC: see the listing below.
System: Staphylococcus aureus
assay.protocol: Antibacterial activity against Staphylococcus aureus ATCC 25923 after 24 hrs by broth dilution MIC assay
Format: functional
details: ATCC 25923, 24 h

molecule	value.modifier	MIC (µg/mL)
C=CC(=O)O[C@@H]1[C@@H]2OC(C)(C)O[C@@H]2O[C@@H]1C(COC(C)=O)OC(=O)CCC(=O)N[C@@H]1C(=O)N2C1SC(C)(C)[C@@H]2C(=O)O (some centres undefined)	>	256
CC1(C)S[C@@H]2[C@H](NC(=O)Cc3ccccc3)C(=O)N2[C@H]1C(=O)O	=	0.012
C=CC(=O)O[C@@H]1[C@@H]2OC(C)(C)O[C@@H]2O[C@@H]1C(COC(C)=O)OC(=O)CCC(=O)N1CCN(c2cc3c(cc2F)c(=O)c(C(=O)O)cn3C2CC2)CC1 (some centres undefined) [CIPROFLOXACIN ACRYLATE]	=	32
C=CC(=O)O[C@@H]1[C@H]2OC(C)(C)O[C@H]2O[C@@H]1C(COC(=O)CCC(=O)O[C@H]1C(=O)N(SC(C)CC)[C@H]1c1ccccc1Cl)OC(=O)CCC(=O)O[C@H]1C(=O)N(SC(C)CC)[C@H]1c1ccccc1Cl (some centres undefined)	=	128
